Test system: Plasmodium berghei
Test: Blood schizonticidal (suppressive) test, Rane mouse test, P. berghei
Type: in vivo, Plasmodium berghei KBG 173 in ICR/HA Swiss mice
Details: 640 mg/kg × 1, s.c.; five mice; Table III
experimentalReadout: Cures (60 days survival) (C)

INSERT INTO measurements (compound, experimentalreadout, readingunit, measurement) VALUES
  ('COc1cc(NC(C)CCCN)c2nccc(C)c2c1Oc1ccc(Cl)c(Cl)c1.O=P(O)(O)O (centres unmarked) [Compound 7]', 'Cures (60 days survival)', 'C', 5),
  ('COc1cc(NC(C)CCCN)c2nccc(C)c2c1Oc1ccc(F)cc1.O=P(O)(O)O (centres unmarked) [Compound 9]', 'Cures (60 days survival)', 'C', 3),
  ('COc1cc(NC(C)CCCN)c2nccc(C)c2c1Oc1ccc(Cl)cc1Cl (centres unmarked) [Compound 8]', 'Cures (60 days survival)', 'C', 3),
  ('COc1ccc(Oc2c(OC)cc(NC(C)CCCN)c3nccc(C)c23)cc1.O=P(O)(O)O (centres unmarked) [Compound 6]', 'Cures (60 days survival)', 'C', 2),
  ('COc1cc(NC(C)CCCN)c2nccc(C)c2c1Oc1cccc(C(F)(F)F)c1.O=C(O)CCC(=O)O (centres unmarked) [Compound 1]', 'Cures (60 days survival)', 'C', 1);

###

Assay: in vivo
Details: guinea pig, po
experimentalReadout: LD50 (mg/kg)

INSERT INTO results (compound, readingunit, measurement) VALUES
  ('COc1cc(NC(C)CCCN)c2nccc(C)c2c1Oc1cccc(C(F)(F)F)c1.O=C(O)CCC(=O)O (stereo not shown)', 'mg/kg', 174);

###

Below: a set of entries, each annotated with reported Cures (60 days survival).
System: Plasmodium berghei
Assay: Blood schizonticidal (suppressive) test, Rane mouse test, P. berghei
Format: in vivo, Plasmodium berghei KBG 173 in ICR/HA Swiss mice
Conditions: 160 mg/kg × 1, s.c.; five mice; Table III
experimentalReadout: Cures (60 days survival) (C)

INSERT INTO assay_data (molecule, targetorsystem, readingunit, measurement) VALUES
  ('CCC(CCCN)Nc1cc(OC)c(Oc2cccc(C(F)(F)F)c2)c2c(C)ccnc12.O=C(O)CCC(=O)O (stereo not drawn) [Compound 4]', 'Plasmodium berghei', 'C', 5),
  ('COc1cc(NC(C)CCCN)c2nccc(C)c2c1Oc1cccc(C(F)(F)F)c1.O=C(O)CCC(=O)O (stereo not drawn) [Compound 1]', 'Plasmodium berghei', 'C', 5),
  ('COc1cc(NCCCCC(C)N)c2nccc(C)c2c1Oc1cccc(C(F)(F)F)c1 (stereo not drawn) [Compound 3, Hemisuccinate Hydrate]', 'Plasmodium berghei', 'C', 4);
